test: Intrinsic clearance in dog per 10^6 cells; type: ADME, Canis lupus familiaris; details: not recorded

{"COMPOUND SMILES": "CC(C)Oc1cc(OCCc2ccsc2)cc(C(=O)Nc2ccc(C(=O)O)cn2)c1", "hepatocyte CLint": "< 1 µL/min/1e6 cells"}
{"COMPOUND SMILES": "COC[C@H](C)Oc1cc(O[C@@H](C)Cc2ccccc2)cc(C(=O)Nc2ccc(C(=O)O)cn2)c1", "hepatocyte CLint": "< 1 µL/min/1e6 cells"}

* * *

assay: Percent of unbound ligand in dog plasma; type: ADME, organism-based, Canis lupus familiaris

{"COMPOUND SMILES": "CC(C)Oc1cc(OCCc2ccsc2)cc(C(=O)Nc2ccc(C(=O)O)cn2)c1", "fraction unbound": 0.0064}
